# System: K98450-129-R-PDC complex spheroid growth, percent test/control;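 further: luminescence used as a proxy for viable cell amount; spheroids exposed to agents for seven days before the viability readout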
# ASSAY COMMENT: Anticancer human tumor K98450-129-R-PDC patient-derived colon adenocarcinoma cell line growth inhibition [RAS]; active means viability on the fitted dose curve at most 10% of control; inactive means the rest
# MEASUREMENT SETUP: second compound 0.3 µM; first compound 10 µM
Allowed answers: active, inactive

Illustrative cases are given below, each with its answer.
Asked: I would be grateful if you could indicate the recorded call for C[C@@H](NC(=O)c1ncnc(N)c1Cl)c1ncc(C(=O)Nc2cc(C(F)(F)F)c(Cl)cn2)s1 + CCn1c(-c2cc(N3CCN(C)CC3)cnc2C(C)OC)c2c3cc(ccc31)-c1csc(n1)CC(NC(=O)C1CC1C)C(=O)N1CCCC(N1)C(=O)OCC(C)(C)C2 .
Given back: inactive

Asked: Returns: the outcome recorded for CC1(O)CCCC1n1c(=O)c(C(F)F)cc2cnc(NC3CCN(S(C)(=O)=O)CC3)nc21 (configuration not stated) + CCn1c(-c2cc(N3CCN(C)CC3)cnc2C(C)OC)c2c3cc(ccc31)-c1csc(n1)CC(NC(=O)C1CC1C)C(=O)N1CCCC(N1)C(=O)OCC(C)(C)C2 in this assay.
Given back: inactive

Asked: Any idea what this test logged for CC(=O)OC12COC1CC(O)C1(C)C(=O)C(O)C3=C(C)C(OC(=O)C(O)C(NC(=O)OC(C)(C)C)c4ccccc4)CC(O)(C(OC(=O)c4ccccc4)C21)C3(C)C (configuration not stated) + CCn1c(-c2cccnc2C(C)OC)c2c3cc(ccc31)N1CCOC(CC(NC(=O)C(C(C)C)N(C)C(=O)C3(F)CCN(C(=O)C#CC(C)(C)N(C)C)CC3)C(=O)N3CCCC(N3)C(=O)OCC(C)(C)C2)C1 ?
Given back: inactive

Asked: What did this assay record as the result for CC1(O)CCCC1n1c(=O)c(C(F)F)cc2cnc(NC3CCN(S(C)(=O)=O)CC3)nc21 (configuration not stated) + CCn1c(-c2cccnc2C(C)OC)c2c3cc(ccc31)N1CCOC(CC(NC(=O)C(C(C)C)N(C)C(=O)C3(F)CCN(C(=O)C#CC(C)(C)N(C)C)CC3)C(=O)N3CCCC(N3)C(=O)OCC(C)(C)C2)C1 ?
Given back: inactive

Asked: Lab log entry: Cc1nc(N2CCC3(CC2)COC(C)C3N)c(CO)nc1Sc1ccnc(N)c1Cl (configuration not stated) + CCn1c(-c2cc(N3CCN(C)CC3)cnc2C(C)OC)c2c3cc(ccc31)-c1csc(n1)CC(NC(=O)C1CC1C)C(=O)N1CCCC(N1)C(=O)OCC(C)(C)C2 — outcome as called in the assay?
Given back: active

New cases:
Asked: What did this assay record as the result for CC(Nc1ccc2c(c1)OCCn1cc(N3C(=O)OCC3C(F)F)nc1-2)C(N)=O (configuration not stated) + CCn1c(-c2cccnc2C(C)OC)c2c3cc(ccc31)N1CCOC(CC(NC(=O)C(C(C)C)N(C)C(=O)C3(F)CCN(C(=O)C#CC(C)(C)N(C)C)CC3)C(=O)N3CCCC(N3)C(=O)OCC(C)(C)C2)C1 ?
Given back: inactive

Asked: Any idea what this test logged for CCC(CC)c1cc(NC2CCC(N)C2)n2nccc2n1 (configuration not stated) + CCn1c(-c2cc(N3CCN(C)CC3)cnc2C(C)OC)c2c3cc(ccc31)-c1csc(n1)CC(NC(=O)C1CC1C)C(=O)N1CCCC(N1)C(=O)OCC(C)(C)C2 ?
Given back: active
